biological target: T1, dog red blood cells (dog); assay: FACS, dog RBC
T1 construct: also called dog RBC

binder | FACS signal
10F1B10/F3 (antibody, V domains shown, as m8) VH: QVQLLQSGAELARPGASVRISCKASGYTFTRYAMHWVKQRPGQGLEWIGYINPGTFSTNYNQKFKDRATLTADKSSSTAYMQLNSLTSEDSAVYYCQTGTRDYWGQGTTLTVSS VL: QIVLTQSPPIMSASPGEKVTITCSAASSVSYIYWFQQKPGTSPKLWIYSTSSLPSGVPTRFSGSGSGTSYSLTISRMEAEDAATYYCHQRSSYPFTFGSGTKLEIR | 1.04 relative flourescence units
8F9E9/F11 (antibody, V domains shown, as m8) VH: QVQLQQSGAELARPGASVKMSCKASGYTFTSYSIHWIKQRPGQSLEWIGYINPNSDYANYNQKFKDKATLTTDKSSTTAYMQLSSLTTDDSAVYYCQTGTRDYWGQGTTLTVSS VL: HIVLTQSPAIMSASPGEKVTIICSARSSVSYMYWFQQKPGTSPKLWIYATSSLPSGVPARFSGSGSGTSYSLTISRMEAEDAATYYCHQRSSYPYTFGSGTKLEIK | 1.05 relative flourescence units
